Target: Adenosine receptor A2a (Homo sapiens)
Sequence (P29274 whole entry): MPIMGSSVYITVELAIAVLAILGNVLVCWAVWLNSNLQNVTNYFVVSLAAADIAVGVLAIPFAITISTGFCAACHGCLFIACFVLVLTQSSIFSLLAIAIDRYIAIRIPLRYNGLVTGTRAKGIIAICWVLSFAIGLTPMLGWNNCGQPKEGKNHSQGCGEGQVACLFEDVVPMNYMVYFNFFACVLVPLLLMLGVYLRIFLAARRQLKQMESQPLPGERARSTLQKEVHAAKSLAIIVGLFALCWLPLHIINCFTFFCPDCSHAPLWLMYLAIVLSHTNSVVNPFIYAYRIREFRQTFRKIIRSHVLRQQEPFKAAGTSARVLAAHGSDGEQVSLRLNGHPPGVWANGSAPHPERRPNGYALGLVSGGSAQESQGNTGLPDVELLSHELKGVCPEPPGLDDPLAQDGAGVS
Assay: Displacement of [3H]CGS21680 from human recombinant adenosine A2A receptor
Entries and their Ki values follow.

As a guide, the following entries are already answered.
{"Mol smiles": "N#Cc1c(-c2ccc(Cl)cc2)cc(-c2ccccc2Cl)nc1N", "Ki": "403 nM (antagonist)"}
{"Mol smiles": "N#Cc1c(-c2ccc(F)cc2)cc(-c2ccccc2)nc1N", "Ki": "87 nM (antagonist)"}
{"Mol smiles": "COc1cc(-c2cc(-c3ccc(O)cc3)nc(N)c2C#N)ccc1O", "Ki": "151 nM (antagonist)"}
{"Mol smiles": "Cc1ccc(-c2cc(-c3ccccc3)nc(N)c2C#N)cc1", "Ki": "118 nM (antagonist)"}
{"Mol smiles": "CCSc1nc(N)nc(-c2ccccc2)n1", "Ki": "5 nM (antagonist)"}
{"Mol smiles": "N#Cc1c(-c2ccc(F)cc2)cc(C2CC2)nc1N", "Ki": "106 nM (antagonist)"}

Q. Look up Ki with Adenosine receptor A2a (Homo sapiens) for this compound: N#Cc1c(-c2ccc(Cl)c(Cl)c2)cc(-c2cccnc2)nc1N
A. 210 nM (antagonist)

Q. Look up Ki with Adenosine receptor A2a (Homo sapiens) for this compound: N#Cc1c(N)nc2c(c1-c1ccc(F)cc1)CCC2
A. 232 nM (antagonist)

Q. Look up Ki with Adenosine receptor A2a (Homo sapiens) for this compound: COc1cccc(-c2cc(C(F)(F)F)nc(NCc3ccc(F)cc3)n2)c1
A. 290 nM (antagonist)

Q. Look up Ki with Adenosine receptor A2a (Homo sapiens) for this compound: CCOc1cc(-c2cc(-c3ccc(O)cc3)nc(N)c2C#N)ccc1O
A. 267 nM (antagonist)

Q. Look up Ki with Adenosine receptor A2a (Homo sapiens) for this compound: COc1ccc(-c2cccc(-c3nc(N)nc(SC)n3)c2)cn1
A. 23 nM (antagonist)

Q. Look up Ki with Adenosine receptor A2a (Homo sapiens) for this compound: N#Cc1c(-c2ccc(Cl)cc2)cc(-c2ccccc2)nc1N
A. 201 nM (antagonist)
